Assay: Antifibrotic activity against human HLF1 cells assessed as reduction in cell growth measured after 48 hrs by MTT assay
Assay type: functional, cell-based
Details: HLF1, 48 h
// IC50 lookup, one value per entry
measured_metric: IC50 (µM)

                                   compound  measured_result
0  COc1ccc(-c2nc(=O)n(Cc3cnc(Cl)s3)c3sc4c(c23)CCC(C(C)(C)C)C4)cc1 (configuration not stated)             14.6
1  Cc1noc(C)c1Cn1c(=O)nc(-c2ccccc2)c2c3c(sc21)CC(C(C)(C)C)CC3 (configuration not stated)             21.3
2  Cc1noc(C)c1Cn1c(=O)nc(-c2ccc(F)cc2)c2c3c(sc21)CC(C(C)(C)C)CC3 (configuration not stated)             14.5
3  Cc1noc(C)c1Cn1c(=O)nc(-c2ccccc2Cl)c2c3c(sc21)CC(C(C)(C)C)CC3 (configuration not stated)               12
4  COc1cc(OC)c2c(=O)[nH]c(-c3cc(C)c(OCCO)c(C)c3)nc2c1 [APABETALONE]               52
5  Cc1sc2c(c1C)C(c1ccc(Cl)cc1)=N[C@@H](CC(=O)OC(C)(C)C)c1nnc(C)n1-2             20.4
6  COC(=O)c1ccc(-c2nc(=O)n(Cc3c(C)noc3C)c3sc4c(c23)CCC(C(C)(C)C)C4)cc1 (configuration not stated)              6.6
